TARGET: T1, recombinant human IL-12 (rhIL-12) (human, UniProt P29459 23-219; P29460 23-328)
T1 sequence (looked up) 1: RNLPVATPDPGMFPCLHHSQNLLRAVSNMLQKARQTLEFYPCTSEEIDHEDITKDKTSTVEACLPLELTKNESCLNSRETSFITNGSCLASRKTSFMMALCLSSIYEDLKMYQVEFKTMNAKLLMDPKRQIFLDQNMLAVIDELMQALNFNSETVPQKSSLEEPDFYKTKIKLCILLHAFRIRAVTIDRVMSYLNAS
T1 sequence (looked up) 2: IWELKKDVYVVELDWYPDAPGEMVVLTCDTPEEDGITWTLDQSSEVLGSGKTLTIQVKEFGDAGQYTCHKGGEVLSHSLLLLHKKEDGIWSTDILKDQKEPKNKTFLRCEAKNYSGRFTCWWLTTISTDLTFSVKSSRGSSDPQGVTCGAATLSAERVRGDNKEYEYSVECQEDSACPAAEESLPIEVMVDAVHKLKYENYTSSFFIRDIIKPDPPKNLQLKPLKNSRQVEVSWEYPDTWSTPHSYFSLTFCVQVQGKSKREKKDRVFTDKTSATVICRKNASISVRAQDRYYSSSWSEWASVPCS
ASSAY_INFO: cell-based or functional assay
PARAMETER_MEASURED: PHA assay IC50 (M) p70:p40 1:0

{"BINDER": "149-6 (scFv) QVQLVQSGGGVVQPGRSLRLSCAASGFTFSSYGMHWVRQAPGKGLEWVAFIRYDGSNKYYADSVKGRFTISRDNSKNTLYLQMKSLRAEDTAVYYCTTHGSHDNWGQGTMVTVSSSYVLTQPPSVSGTPGQRVTISCSGGRSNIVSNTVKWYQQLPGTAPKLLIYGNDQRPSGVPDRFSGSKSGTSASLAITGVQAEDEADYYCQSYDRGFTGSRVFGTGTKVTVLG", "VALUE_OBSERVED": "9e-10"}
{"BINDER": "136-15 (scFv) QVQLVQSGGGVVQPGRSLRLSCAASGFTFSSYGMHWVRQAPGKGLEWVAFIRYDGSNKYYADSVKGRFTISRDNSKNTLYLQMKSLRAEDTAVYYCKTHGSHDNWGQGTMVTVSSSYVLTQPPSVSGTPGQRVTISCSGSRSNIGSNTVKWYQQLPGTAPKLLIYGNDQRPSGVPDRFSGSKSGTSASLAITGVQAEDEADYYCQTYDKGFTGSSVFGTGTKVTVLG", "VALUE_OBSERVED": "2e-09"}
{"BINDER": "149-5 (scFv) QVQLVQSGGGVVQPGRSLRLSCAASGFTFSSYGMHWVRQAPGKGLEWVAFIRYDGSNKYYADSVKGRFTISRDNSKNTLYLQMKSLRAEDTAVYYCTTHGSHDTWGQGTMVTVSSSYVLTQPPSVSGTPGQRVTISCSGGRSNIGSNTVKWYQQLPGTAPKLLIYGNDQRPSGVPDRFSGSKSGTSASLAITGVQAEDEADYYCQSYDSSLWGTRVFGTGTKVTVLG", "VALUE_OBSERVED": "6.5e-09"}
